Test system: BasE (2,3-dihydroxybenzoate-AMP ligase), Acinetobacter baumannii ATCC 17978
Assay: inhibitors of A. baumannii BasE – biochemical, Acinetobacter baumannii ATCC 17978, fluorescence polarization, primary screen (AID 485350);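 also: 0% = negative plate control signal and 100% = positive plate control signal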
Settings: purified BasE, fluorescence polarization binding displacement; stronger effect = higher value; concentration not given here
Out of some 84,000 compounds screened, about 95 (0.1%) were called active. The full list was thinned out, with actives kept by preference.
inhibition: recorded values
# value in %; strip the unit string

{"columns": ["Compound", "Measurement Target", "inhibition, %"],
 "data": [
  ["FC(F)Oc1ccc(-c2csc(=Nc3cccnc3)n2C2CC2)cc1", "BasE (2,3-dihydroxybenzoate-AMP ligase), Acinetobacter baumannii ATCC 17978", 3.62]
]}

Specify inhibition for C=CCN1C(=O)S/C(=C\c2ccc(OCC(=O)OC)cc2)C1=O and stop.
0.73

Using the record for COc1cc(OC)c(C2Nc3c(C)cc(C)cc3-c3cc(C)nn32)cc1OC (stereo not drawn) , state its measured inhibition.
0.21

----------
Tested on: BasE (2,3-dihydroxybenzoate-AMP ligase), Acinetobacter baumannii ATCC 17978
Assay: inhibitors of A. baumannii BasE – biochemical, Acinetobacter baumannii ATCC 17978, fluorescence polarization, primary screen (AID 485350);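 also: 0% = negative plate control signal and 100% = positive plate control signal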
Settings: purified BasE, fluorescence polarization binding displacement; stronger effect = higher value; concentration not given here
Hit rate of the full screen: of about 84,000 compounds, about 95 (0.1%) were called active. The sample as a whole holds a higher share of actives than the screen did.
Attribute: inhibition
Reply with just the number (in %).

Some solved cases for reference:
{"columns": ["Compound", "inhibition, %"],
 "data": [
  ["Cc1ccc(CN2CCC(CNC(=O)Cn3c(=O)oc4ccccc43)CC2)cc1", 3.44],
  ["CN(C(=S)NCc1ccccc1)C1CCCCC1", 1.12],
  ["C=CCN(CC=C)C(=O)CSc1nnc2c3ccccc3n(C)c2n1", 4.82],
  ["CCOC(=O)c1c(C)[nH]c(C(=O)CN2C(=O)NC(CC)(c3ccc(F)cc3)C2=O)c1C (configuration not stated)", -1.75],
  ["Cc1c(CCC(C)C)c(NCCN2CCOCC2)n2c(nc3ccccc32)c1C#N", 2.4]
]}

Read off the recorded inhibition for CCC(CC)=NNC(=O)c1cc(-c2ccccc2)n[nH]1
0.72

Note inhibition for the compound shown: O=C(CCC1CC(=O)OC1c1ccccc1)Nc1nccs1 (configuration not stated)
0.54

Return inhibition for the following compound: O=C1CCC2(C(=O)OCCCn3c(=O)[nH]c4ccccc43)Sc3ccccc3N12 (configuration not stated)
1.34

Supply inhibition value. Item: Cc1ccc(S(=O)(=O)Nc2nc(O)c(C3=c4ccccc4=NC3=O)s2)cc1
2.18

Using known records, supply inhibition for COc1cc2c(cc1OC)C(C)N(Cc1sc3ccccc3c1C)CC2 (configuration not stated)
-2.07

Quick one: give measured inhibition for Cc1cc(Oc2ccc3c(c2)OCO3)nc2ccccc12
6.24

Let me know recorded inhibition for COC(=O)c1cc(S(=O)(=O)N(CCCN2CCOCC2)C2CCN(C)CC2)cn1C , thanks.
-0.33

# return recorded inhibition for entry Cc1ccc(N2C(=O)CCC(C(=O)OCc3nnc(-c4ccccc4)o3)C2c2cccs2)cc1 (configuration not stated)
1.51

Provide only the value of recorded inhibition for O=C(c1ccc2c(c1)C(=O)N(Cc1ccncc1)C2=O)N1CCN(S(=O)(=O)c2ccc(OC(F)(F)F)cc2)CC1
0.9

Please list inhibition recorded for the compound CN(C)S(=O)(=O)c1ccc(C(=O)OCC(=O)N2CCCCC2)cc1
0.92

State its inhibition: Cc1cc(C(=O)OCC(=O)c2cc(C)n(-c3ccc(Cl)cc3)c2C)no1
1.57

Give inhibition for CC(C)[C@H](NC(=O)C1CCCCC1)c1nc2ccccc2[nH]1
-0.24

Check the records and state inhibition for Cc1nn(CCC#N)c2nc(-c3ccc(F)cc3)cc(C(=O)O)c12
0.45

Identify measured inhibition corresponding to CCOc1cc(C(=O)CCC(=O)O)ccc1O
0.21

Identify the reported inhibition for the following entry. Cc1cc(C)nc(SCC(=O)OCC(=O)N2CCc3ccccc32)n1
-2.45

Give the measured inhibition for CCCCNc1ncc2c(n1)c(=O)c(C#N)c1[nH]c3ccccc3c(=O)n12
-8.32

Item COc1ccc(-n2cc3c(c(C#N)c2=N)CC(C)(C)CC3=O)c(OC)c1 : provide inhibition
-12.9

----------
Tested on: BasE (2,3-dihydroxybenzoate-AMP ligase), Acinetobacter baumannii ATCC 17978
Assay: inhibitors of A. baumannii BasE – biochemical, Acinetobacter baumannii ATCC 17978, fluorescence polarization, primary screen (AID 485350);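 also: 0% = negative plate control signal and 100% = positive plate control signal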
Conditions: purified BasE, fluorescence polarization binding displacement; stronger effect = higher value; concentration not given here
The campaign covered roughly 84,000 compounds. About 95 (0.1%) were called active. The sample as a whole holds a higher share of actives than the screen did.
Below, each entry is listed with its recorded inhibition.
Give just the numeric value; % need not be written.

Known results for molecules:
{"columns": ["Molecule", "Result Type", "Experimental Value"],
 "data": [
  ["CC(Oc1ccc(F)cc1)C(=O)O (stereo not drawn)", "inhibition", -0.06],
  ["CCN(CC)Cc1cc(C(=O)O)co1", "inhibition", -4.35],
  ["Cc1cc(C)n(-c2ccc(C(=O)OCC(=O)C(C)(C)C)cc2)n1", "inhibition", -0.47],
  ["COc1ccc(-n2c(-c3ccc(Cl)cc3)cnc2SCc2nccn2C)cc1", "inhibition", -1.16],
  ["CO/N=C(/C(=O)N[C@@H]1C(=O)N2C(C(=O)[O-])=C(C[N+]3(C)CCCC3)CS[C@H]12)c1csc(N)n1", "inhibition", -0.27],
  ["CCc1ccc(CCC(=O)O)cc1", "inhibition", 1.07],
  ["O=C(OCC(=O)N1CCCc2ccccc21)c1cc2ccccc2oc1=O", "inhibition", -0.7],
  ["CCOc1ccc(-n2cc(C(=O)N3CCN(c4ccccc4OC)CC3)c3cc(OC)c(OC)cc3c2=O)cc1", "inhibition", 0.29],
  ["Cc1cc(C(=O)N/N=C/c2ccc(O)cc2)c2ccccc2n1", "inhibition", -0.11],
  ["COCC(C)NC(=O)Nc1c[nH]c2ccccc12 (stereo not drawn)", "inhibition", -1.24]
]}

Please give measured inhibition of the following entry: CC(c1ccccc1)N(C)CN1C(=O)c2ccccc2C1=O (stereo not drawn)
-0.8

Give a short answer stating reported inhibition for CN(C)S(=O)(=O)c1ccc(C(=O)Nc2ccccc2C(=O)NCc2ccc3c(c2)OCO3)cc1 .
-2.15

Kindly indicate its recorded inhibition. Item: N#Cc1cccc(OC(=O)c2ccccc2)c1
1.16

Find the measured inhibition of COC(=O)C(NC(=O)c1ccc(Cl)cc1)C(F)(F)F (stereo not drawn) and report it.
7.11

----------
System: BasE (2,3-dihydroxybenzoate-AMP ligase), Acinetobacter baumannii ATCC 17978
Test: inhibitors of A. baumannii BasE – biochemical, Acinetobacter baumannii ATCC 17978, fluorescence polarization, primary screen (AID 485350);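 also: 0% = negative plate control signal and 100% = positive plate control signal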
Details: purified BasE, fluorescence polarization binding displacement; stronger effect = higher value; concentration not given here
Out of some 84,000 compounds screened, about 95 (0.1%) were called active. This excerpt belongs to a sample that is enriched for actives.
Result Type: inhibition (%)
Numbers only; they are read as %.

{"columns": ["Molecule", "Measurement Target", "inhibition (%)"],
 "data": [
  ["Cc1ccc(Nc2nc(N)nc(CSc3nc4c(n3-c3ccccc3)CCCC4)n2)cc1", "BasE (2,3-dihydroxybenzoate-AMP ligase), Acinetobacter baumannii ATCC 17978", -1.36],
  ["C(=N\\n1cnnc1)/c1ccc(OC2OCCOC2Oc2ccc(/C=N/n3cnnc3)cc2)cc1 (stereo not drawn)", "BasE (2,3-dihydroxybenzoate-AMP ligase), Acinetobacter baumannii ATCC 17978", 1.12],
  ["Cc1cccc(C(=O)NCC(=O)NN)c1", "BasE (2,3-dihydroxybenzoate-AMP ligase), Acinetobacter baumannii ATCC 17978", 0.12]
]}

Determine from records and report inhibition for O=C1CSC(=Nc2ccccc2)N1S(=O)(=O)c1ccccc1
0.27

Look up inhibition of Cc1cc(N2CCN(C)CC2)nc2ccc(NC(=O)NC3CCCC3)cc12 and report it.
-2.82

----------
System: BasE (2,3-dihydroxybenzoate-AMP ligase), Acinetobacter baumannii ATCC 17978
Experiment: inhibitors of A. baumannii BasE – biochemical, Acinetobacter baumannii ATCC 17978, fluorescence polarization, primary screen (AID 485350);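 also: 0% = negative plate control signal and 100% = positive plate control signal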
Conditions: purified BasE, fluorescence polarization binding displacement; stronger effect = higher value; concentration not given here
About 95 (0.1%) of roughly 84,000 compounds were called active. The list comes from a sample in which actives are over-represented; it also holds close analogues and randomly drawn compounds.
Result Type: inhibition (%)
Value expressed in %; do not type the unit.

Output measured inhibition for this item: COc1ccc(CNn2cnnc2SCc2ccc(F)cc2)cc1OC
-1.54
